Listed next: entries and their corresponding Maximal reduction in CD33 (% remaining).
biological target: human CD33 on primary human dendritic cells (human, UniProt P20138 18-364); assay: cell-based or functional assay
Sequence (P20138 18-364): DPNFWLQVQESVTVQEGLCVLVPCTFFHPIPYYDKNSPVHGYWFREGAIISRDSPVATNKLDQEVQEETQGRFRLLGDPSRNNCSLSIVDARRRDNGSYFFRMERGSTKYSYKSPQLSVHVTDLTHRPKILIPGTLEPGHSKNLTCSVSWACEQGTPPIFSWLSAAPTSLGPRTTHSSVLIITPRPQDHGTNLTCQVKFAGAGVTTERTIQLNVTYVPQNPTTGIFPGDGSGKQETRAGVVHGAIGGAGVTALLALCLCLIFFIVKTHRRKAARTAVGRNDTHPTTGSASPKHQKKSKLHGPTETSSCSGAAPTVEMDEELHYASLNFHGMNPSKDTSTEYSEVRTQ
// return numeric value only (unit: % remaining, not printed)

anti-CD33 antibody 6C7H12 (antibody, V domains shown, VH/VL only) VH: EVQLVESGGGLVQPGGSLRLSCAGSGFTFSNYGMNWVRQAPGKGLEWVAEIRLKSNNYVTNYAASVKGRFTISRDDSKNSVYLQMNSLKTEDTGVYYCTRAGYYVPFAYWGQGTLVTVSS VL: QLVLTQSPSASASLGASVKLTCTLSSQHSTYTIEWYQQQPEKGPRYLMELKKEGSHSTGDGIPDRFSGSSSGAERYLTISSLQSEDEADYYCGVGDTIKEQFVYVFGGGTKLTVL ... 27.5

Query block: Which value of Maximal reduction in CD33 (% remaining) has been reported for anti-CD33 antibody 6C7H20 (antibody, V domains shown, VH/VL only) VH: EVQLVESGGGLVQPGGSLRLSCAGSGFTFSNYPMNWVRQAPGKGLEWVAEIRLKSNNYVTNYAASVKGRFTISRDDSKNSVYLQMNSLKTEDTGVYYCTRAGYYVPFAYWGQGTLVTVSS VL: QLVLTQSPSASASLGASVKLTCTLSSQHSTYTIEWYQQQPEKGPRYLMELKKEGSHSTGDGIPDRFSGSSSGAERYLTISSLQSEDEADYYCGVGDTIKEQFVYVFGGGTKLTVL in the records?
Result block: 29
